Reference source for all entries: ChEMBL document CHEMBL1201862

Tested on: SK-MEL-2
Test: NCI tumour cell line growth inhibition, 48 h
The source made the active and inactive calls. Cut-off read from the data, not from the text of the source: active = GI50 up to about 1.1 µM and inactive = higher.
Possible outcomes: YES = active, NO = inactive

[[record]]
compound = "COc1ccc(-c2nnc(-c3c(C)n(C)n(-c4ccccc4)c3=O)o2)cc1"
grouplabel = "NO"

[[record]]
compound = "CC1(c2nc3ccccc3[nH]2)CCC(CO)C(C)(C)O1 (stereo unspecified)"
grouplabel = "NO"

[[record]]
compound = "CCCCCCCCCC/C=C/C=O"
grouplabel = "NO"

[[record]]
compound = "O=C1O[C@H](C(Cl)(Cl)Cl)N2CCCC12 (stereo partly specified)"
grouplabel = "NO"

[[record]]
compound = "COc1ccc2[nH]cc(C=C3C(=O)NC(=S)NC3=O)c2c1"
grouplabel = "NO"

[[record]]
compound = "CN(C)c1ccc(C(=N/N=C2\\C(=O)Nc3ccccc32)c2ccc(N(C)C)cc2)cc1"
grouplabel = "YES"

[[record]]
compound = "O=C(O)CCC1CCc2cccc3occ1c23 (stereo unspecified)"
grouplabel = "NO"

[[record]]
compound = "COc1ccc(CC2c3cc(OC)c(OC)c(OC)c3CC[N+]2(C)C)cc1Oc1ccc(CC2c3cc4c(c(OC)c3CC[N+]2(C)C)OCO4)cc1 (stereo unspecified)"
grouplabel = "NO"

[[record]]
compound = "Cc1ccc([N+](=O)[O-])cc1S(=O)(=O)Nc1ccc(C2=NN(c3ccc([N+](=O)[O-])cc3[N+](=O)[O-])C(c3cccs3)C2)cc1 (stereo unspecified)"
grouplabel = "NO"

[[record]]
compound = "CSC1=C(C(=O)N(COCC[Si](C)(C)C)c2ccccc2Br)CCC(C(C)(C)C)C1 (stereo unspecified)"
grouplabel = "NO"

[[record]]
compound = "O=P(O)(O)CN1CCN(CP(=O)(O)O)CCN(CP(=O)(O)O)CCN(CP(=O)(O)O)CC1"
grouplabel = "NO"

[[record]]
compound = "Cc1ccc(/C=c2\\cc3oc(=O)c4cccc(c4-3)c2=O)cc1"
grouplabel = "NO"

[[record]]
compound = "CC(C)[Si](OC12CCC(CC1O)CC2C(=O)O)(C(C)C)C(C)C (stereo unspecified)"
grouplabel = "NO"

[[record]]
compound = "OCc1ccccc1C1CSCSC1"
grouplabel = "NO"

[[record]]
compound = "O=C1c2ccc(O)cc2C(=O)c2ccc(O)cc21"
grouplabel = "NO"

[[record]]
compound = "CCOc1ccc(/N=N/c2ccc3oc(=O)c(C(=O)Nc4ccc(OC)cc4)cc3c2)cc1"
grouplabel = "NO"

